System: Plasmodium berghei
assay.summary: Screen against P. berghei liver stage (PbLuc), transformed with Luciferase, at 2uM
Type: functional, HepG2
stated.conditions: tested at 2 uM
In all, about 68,000 compounds went through this assay and about 2,700 (4%) showed an effect of 50% or more. The sample holds strong results, similar compounds and a random draw of the others, so the mix is not that of the screen.
Could you label it TRUE if measured INHIBITION is 50% or higher, and FALSE otherwise?

Observe how each entry below is paired with its result.
molecule: Cc1noc(C(C)N(C)CC(=O)NCCc2ccc(Cl)cc2)n1 (stereo unspecified)
class.assignment: FALSE

molecule: CN(Cc1ccccn1)C(=O)C(c1ccccc1)N1CCSCC1 (stereo unspecified)
class.assignment: FALSE

molecule: Cc1cc2n(n1)CCN(c1nc(N(C)C)nc3c1CCNC3)C2
class.assignment: FALSE

molecule: Cc1cc(C(F)(F)F)nn1CCNC(=O)C(C)n1ccnc1C(C)C (stereo unspecified)
class.assignment: FALSE

molecule: COc1ccccc1CNC(C)c1ccc(-n2ccnc2)cc1 (stereo unspecified)
class.assignment: FALSE

molecule: CCc1c(C)nc2cc(C3CCN(Cc4cccc(F)c4)C3)nn2c1O (stereo unspecified)
class.assignment: TRUE

(Q) I'd appreciate it if you could say whether Cc1ccc(SCCCNC(=O)c2cn(C3CCC(N)CC3)nn2)cc1 (stereo unspecified) has INHIBITION at least equal to 50%.
(A) FALSE

(Q) Dear colleague, could you confirm whether CC(C)COC[C@H]1CC[C@H]2[C@H](CCN2C(=O)c2ccncc2F)O1 has INHIBITION at or above 50%?
(A) TRUE

(Q) Hi team, for Cc1ccc(SCCN(C)C(=O)c2cn(C3CCC(N)CC3)nn2)cc1 (stereo unspecified) , is the recorded INHIBITION at or above 50%?
(A) FALSE

====

// reported INHIBITION per item
Test system: Plasmodium berghei
assay.summary: Screen against P. berghei liver stage (PbLuc), transformed with Luciferase, at 2uM
Type: functional, HepG2
stated.conditions: tested at 2 uM
The whole screen tested about 68,000 compounds, of which about 2,700 (4%) showed an effect of 50% or more. The sample holds strong results, similar compounds and a random draw of the others, so the mix is not that of the screen.
The answer is to be given in %; state only the numeric part.

Below, 3 compounds whose answers are already recorded.
compound: Cc1cncc(C(=O)N2C[C@@H](C(=O)O)[C@H](C(C)C)C2)c1
value.units: %
INHIBITION: 44.23

compound: O=S(=O)(NC1=NCN(CCc2cccs2)CN1)c1ccc(Br)cc1
value.units: %
INHIBITION: 50.67

compound: CC(NC(=O)Nc1cccnc1N1CCOCC1)c1ccncc1 (configuration not stated)
value.units: %
INHIBITION: 0.45

Record CC(Cn1cc(Br)cn1)C(=O)Nc1ccc(Br)cn1 (configuration not stated) , field INHIBITION: -84.37

Looking up COCCN(C)C(=O)c1nc2c(s1)CCCN2C , I found its INHIBITION recorded as 32.04

Lab note: measured INHIBITION of Cc1cnn(CC(C)Nc2nc(C)cc(N(C)C)n2)c1 (configuration not stated) was -28.68

====

Tested on: Plasmodium berghei
assay.summary: Screen against P. berghei liver stage (PbLuc), transformed with Luciferase, at 2uM
Format: functional, HepG2
stated.conditions: tested at 2 uM
The whole screen tested about 68,000 compounds, of which about 2,700 (4%) showed an effect of 50% or more. Only a selection was taken, and strong results are over-represented in it overall.
# binarize INHIBITION: threshold 30% inclusive, high side T, low side F

Known results for molecules:
molecule: Cn1cc(CN2CCN(CC3(c4ccccc4)CC3)CC2)cn1
class.assignment: F
--
molecule: Cc1c(CNCCCOc2cccnc2)c2ccccc2n1CC(N)=O
class.assignment: T
--
molecule: CCOc1cc(CN[C@@H]2COC[C@H]2Cc2cc(C)no2)ccc1O
class.assignment: T
--
molecule: CCCc1nc(C(=O)NCCN2CCC(c3ccccc3C)C2)cs1 (stereo not drawn)
class.assignment: F
--
molecule: CS(=O)(=O)NCCNC(=O)Cc1ccc(Br)s1
class.assignment: F

(Q) Does Cc1cnc(CNCc2cnc(-c3ccccc3C)s2)cn1 have a reported INHIBITION of at least 30%?
(A) T

(Q) Is INHIBITION at least 30%? Consider Cc1ccc(NS(=O)(=O)c2c[nH]c3ncccc23)nc1
(A) F

(Q) Has Cc1ccc2nc(C)cc(C(=O)NC(C)c3nnn[nH]3)c2c1 (stereo not drawn) a recorded INHIBITION greater than or equal to 30%?
(A) F

(Q) # bool: INHIBITION of Cc1cc2c(cc1C)OC1(C=C2)CCN(CC(=O)N2CCOCC2)CC1 >= 30%
(A) T

(Q) Can O=C(c1ccco1)N1CCOC2(COCCN(c3ncccn3)C2)C1 (stereo not drawn) be said to have INHIBITION at or above 30%?
(A) T

(Q) Given the entry Cc1ccccc1-c1ncc(CNCc2csc(C(C)C)n2)s1 , answer whether its INHIBITION meets or surpasses 30%.
(A) F

(Q) INHIBITION >= 30% for Cc1cc2c(cc1Cl)C=CC1(CCN(C(=O)N3CCOCC3)CC1)O2 ?
(A) T

(Q) Given CC1CCN(C(=O)c2cc(NC(=O)c3ccccc3)n(C)n2)CC1 , state whether its INHIBITION is at least 30%.
(A) F

(Q) Check this molecule for INHIBITION at or above 30%: O=c1c(=CS(=O)(=O)Nc2ccc(Br)cc2)[nH]c(=O)n2cccc12
(A) F

====

Test system: Plasmodium berghei
assay.summary: Screen against P. berghei liver stage (PbLuc), transformed with Luciferase, at 2uM
Assay type: functional, HepG2
stated.conditions: tested at 2 uM
About 2,700 (4%) of roughly 68,000 compounds showed an effect of 50% or more. The entries come from a sample that favours strong results as a whole.
// INHIBITION lookup, one value per entry
Only the number, expressed in %, is required.

Here is how some molecules turned out for INHIBITION.
molecule: O=C(C1CCCCC1)N1C[C@@H]2CCN(c3cnccn3)C[C@@H]2C1
tgt: Plasmodium berghei
INHIBITION, %: 50.17
--
molecule: CC1(C)CN(CC(F)(F)F)CCN1CC(=O)NC1CC1
tgt: Plasmodium berghei
INHIBITION, %: 65.42
--
molecule: CCOCC1CN(C(=O)c2ccco2)Cc2cnn(CC)c21 (configuration not stated)
tgt: Plasmodium berghei
INHIBITION, %: 16.87
--
molecule: Cc1cccc(CN2C(=O)CCC23CCN(Cc2cccn2C)CC3)n1
tgt: Plasmodium berghei
INHIBITION, %: 17.39
--
molecule: O=C(C1CCCC1)N1C[C@@H]2CCN(c3cnccn3)C[C@@H]2C1
tgt: Plasmodium berghei
INHIBITION, %: 28.75
--
molecule: Cc1ccc(CN2C[C@@H](OCc3csc(C)n3)[C@H]3COC[C@H]32)s1
tgt: Plasmodium berghei
INHIBITION, %: 9.36

response.value for CCc1cc(CNC(=O)N2Cc3ccccc3N(C)CC2C)on1 (configuration not stated) (field: INHIBITION) = 61.01

The recorded INHIBITION for CC(C)OCCCN(CC(=O)N1CCNCC1)C(=O)c1ccc(F)cc1 is -20.36

Value of INHIBITION reported for the molecule CC(C)N1CCC(CC(=O)N2CCN(Cc3nccn3C)CC2)CC1 is 29.41

// recorded INHIBITION for O=C(c1cnccn1)N1C[C@@H]2CCN(c3cnccn3)C[C@@H]2C1 : 24.95

====

Test system: Plasmodium berghei
assay.summary: Screen against P. berghei liver stage (PbLuc), transformed with Luciferase, at 2uM
Type: functional, HepG2
stated.conditions: tested at 2 uM
The campaign covered roughly 68,000 compounds. About 2,700 (4%) showed an effect of 50% or more. The list comes from a sample in which strong results are over-represented; it also holds close analogues and randomly drawn compounds.
readout.label: INHIBITION (%)
Please give a number only; it is taken to be in %.

Reference set (6 entries):
compound: O=c1cc(CN2CCCC(CCc3c(F)cccc3F)C2)[nH]c(=O)[nH]1 (configuration not stated)
readout.label: INHIBITION
numeric.value: -21.63
--
compound: Cc1nnsc1CN(C)C(=O)CN1CC2(CCNCC2)OC1=O
readout.label: INHIBITION
numeric.value: -7.96
--
compound: N#CCCN1CC(O)CN(C(=O)c2cccc(C(F)(F)F)c2)CC1=O (configuration not stated)
readout.label: INHIBITION
numeric.value: 24.52
--
compound: Cc1nccn1-c1ccc(=O)n(CCNC(=O)c2ccncc2)n1
readout.label: INHIBITION
numeric.value: -45.03
--
compound: CC(C)OC(=O)N1CCCCC1CCn1cccn1 (configuration not stated)
readout.label: INHIBITION
numeric.value: 29.71
--
compound: COCc1cccc(NC(C(N)=O)c2ccc(Br)cc2)c1 (configuration not stated)
readout.label: INHIBITION
numeric.value: 0.53

Here's the next entry for you.
Quick note, INHIBITION for COc1ccc(C(C)NC(=O)NCCCn2cncn2)cc1F (configuration not stated) landed at -40.52
